# Test system: Trachea
# assayText: Inhibition of KCl-induced contraction in Sprague-Dawley rat trachea assessed as tracheal tension at 10^-5 mol/L (reference value: 2.16 to 2.59 g)
# Type: functional
Form field: Activity (one value per entry).

| molecule | Activity (g) |
| --- | --- |
| Cc1c([C@H](C)[C@@H]2NC[C@@H](C)C[C@H]2O)ccc2c1C[C@H]1[C@H]2CC(=O)[C@H]2C[C@@H](O)CC[C@@]21C | 2.18 |
| C[C@H]1CC[C@@H]2N(C1)C[C@H]1[C@@H]3C[C@H]4[C@@H](CC(=O)[C@H]5C[C@@H](O)CC[C@@]54C)[C@@H]3CC[C@H]1[C@]2(C)O | 2.42 |
| C[C@@H]1CN[C@H]2[C@@H](C)[C@@]3(CC[C@]4(O)[C@@H]5CC(=O)[C@H]6C[C@@H](O)CC[C@]6(C)[C@H]5C[C@]45O[C@]53C)O[C@@H]2C1 | 2.42 |
| C[C@H]1CC[C@H]2[C@@](C)(O)[C@@H]3CC[C@@H]4[C@@H](C[C@H]5[C@H]4CC(=O)[C@H]4C[C@@H](O)CC[C@@]45C)[C@@H]3C[N+]2([O-])C1 (some centres undefined) | 2.31 |
